B1: Tesmin, residues 368 to 403; numbered along this chain, Q9Y4I5 (parent)
chain: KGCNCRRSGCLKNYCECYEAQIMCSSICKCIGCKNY

- Variants of: B1
- protocol-notes: abundance fitness (aPCA) (normalised: wild type 0, dead -1); higher = more abundant; growth selection in yeast, the domain comes from the species named
- condition-info: Homo sapiens
Note to self: class = bucket of abundance fitness, per range 1 = under -0.3, range 2 = from -0.3 up to -0.01, range 3 = -0.01 and over

I27N    range 3
K12A    range 2
E16R    range 1

## Input Any idea which band Y18G is in?
## Output range 3

## Input Which class holds Y18D ?
## Output range 2

Measured values drawn from the Human Domainome abundance scans (Beltran et al. 2025) for this set.
